biological target: γ-secretase (Homo sapiens); construct: endogenous in cells; host or cells: SKNBE2 human neuroblastoma cells (carrying hAPP 695 wild type as substrate); assay: Screening for γ-secretase-modulating activity: Aβ42 in supernatant of SKNBE2 cells carrying hAPP 695 wild type (Alphalisa); format: cell-based; conditions: SKNBE2 human neuroblastoma cells carrying hAPP 695 wild type, overnight incubation, Aβ42 in cell supernatant
pIC50: −log10 of the molar value.
Criterion: pIC50 meeting or surpassing 7. Met: satisfied. Not met: not satisfied.

Decide: pIC50 of `Cc1cn(-c2ccc3n(c2=O)CCN(c2cccc(C(F)(F)F)c2C)C3=O)cn1` >= 7?
not satisfied

Determine whether this compound has pIC50 no lower than 7: `Cc1cn(-c2ccc3n(c2=O)C[C@@H](C)N(Cc2c[nH]c4ccc(OC(F)(F)F)cc24)C3=O)cn1`
satisfied

Record `Cc1cn(-c2ccc3n(c2=O)C[C@@H](C)N(CCc2cc(C(F)(F)F)cc(C(F)(F)F)c2)C3=O)cn1` ; criterion: pIC50 no lower than 7. Met?
satisfied

Is the recorded value of pIC50 equal to or greater than 7 for this compound? `Cc1cn(-c2ccc3n(c2=O)C[C@@H](C)N(Cc2cc(OCC(F)(F)F)cc(C(F)(F)F)c2)C3=O)cn1`
satisfied

Form field: pIC50 at least 7? Entry: `CCn1cc(CN2C(=O)c3ccc(-n4cnc(C)c4)c(=O)n3C[C@H]2C)c2cc(C(F)(F)F)ccc21`
satisfied

Decide: is the reported value of pIC50 for CCn1cc(C(C)N2C(=O)c3ccc(-n4cnc(C)c4)c(=O)n3CC2C)c2cc(Cl)ccc21 (single isomer, unassigned) [compound 249] equal to or greater than 7?
not satisfied

Dear colleague, could you confirm whether Cc1cn(-c2ccc3n(c2=O)CCN(C(c2cc(C(F)(F)F)cc(C(F)(F)F)c2)C2CCOCC2)C3=O)cn1 (stereo not drawn) has pIC50 at or above 7?
not satisfied

State whether the measured pIC50 reaches 7, counting equality as reaching it, for `Cc1cncn1-c1ccc2n(c1=O)CCN(Cc1ccccc1)C2=O`
not satisfied

Decide: pIC50 of `CCCc1nccn1-c1ccc2n(c1=O)CCN(CCC1CC1)C2=O` >= 7?
not satisfied
